biological target: Enoyl-[acyl-carrier-protein] reductase [NADH] (Mycobacterium tuberculosis, UniProt P9WGR1); test: Inhibition of Mycobacterium tuberculosis InhA
Sequence (P9WGR1 whole entry): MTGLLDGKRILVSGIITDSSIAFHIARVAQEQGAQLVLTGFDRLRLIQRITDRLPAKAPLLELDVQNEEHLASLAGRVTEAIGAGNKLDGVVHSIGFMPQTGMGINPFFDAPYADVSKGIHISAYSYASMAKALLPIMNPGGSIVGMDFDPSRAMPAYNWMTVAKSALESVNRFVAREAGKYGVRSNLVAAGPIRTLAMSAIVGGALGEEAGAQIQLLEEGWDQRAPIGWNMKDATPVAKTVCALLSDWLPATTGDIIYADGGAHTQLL
pKi: −log10 of the molar value.
measured_quantity: pKi

>>> reported_value("CCCCc1ccnc(Cc2ccc(Oc3ccc(Cl)cc3Cl)c(O)c2)c1")
5.96
>>> reported_value("CCCCCCc1ccc(Oc2ccccc2C#N)c(O)c1")
8.67
>>> reported_value("CCc1cc(C(=O)c2cc[n+]([C@@H]3O[C@H](COP(=O)(O)OP(=O)(O)OC[C@H]4O[C@@H](n5cnc6c(N)ncnc65)[C@H](O)[C@@H]4O)[C@@H](O)[C@H]3O)cc2C(N)=O)ccn1")
8.15
>>> reported_value("Cc1cc(C)n(Cc2ccc(C(=O)NCc3ccc(F)cc3Cl)cc2)n1")
7.30

###

target: Enoyl-[acyl-carrier-protein] reductase [NADH] (Mycobacterium tuberculosis); test: Binding affinity to Mycobacterium tuberculosis InhA in presence of NAD+ by surface plasmon resonance assay
pKd: −log10 of the molar value.
# pKd values compiled below
measured_quantity: pKd

>>> reported_value("CNC(=O)[C@@H]1C[C@H](NC(=O)[C@@H](NC(=O)c2ccc(Cn3cccn3)cc2)[C@@H](C)OC(C)(C)C)CN1C(=O)c1ccccc1")
4.31
>>> reported_value("CNC(=O)CN(Cc1ccc(F)cc1)C(=O)[C@H]1CC[C@@H](NC(=O)Cc2sc3ccccc3c2C)CC1")
4.33
>>> reported_value("CNC(=O)CN1CCN(C(=O)[C@H]2CC[C@@H](NC(=O)Cc3sc4ccccc4c3C)CC2)[C@@H](Cc2ccccc2)C1=O")
4.87
